- System: PCSK9 mRNA
- Method: In vitro screening of modified dsRNAs targeted to PCSK9 (Table 2b; cell type not given)
- Format: cell-based
- Condition parameters: 30 nM siRNA
In the oligonucleotide strings, read from the 5' end, every base follows the letter of its sugar. An asterisk marks phosphorothioate; unmarked linkages are phosphodiester. Other units and linkages are bracketed, terminal groups are in braces. A string of capitals states the bases alone. d = 2'-deoxy (DNA); m = 2'-O-methyl; r = 2'-OH (RNA); {P} = phosphate; f = 2'-fluoro
In this section, each of the substances is paired with its reported Remaining mRNA in % of controls at siRNA conc. of 30 nM.
Quick reminder: number only, in %, skip the unit.

Example results:
substance="AD-12386: modified dsRNA, SEQ ID NO:1467/1468 (chain 1 fGmCfCmUfGmGfAmGfUmUfUmAfUmUfCmGfGmAfA; chain 2 {P}-fUfUfCfCrGrArAfUrArArAfCfUfCfCrArGrGfCdT*dT)" reading_unit=% observed_result=11
substance="AD-12064: modified dsRNA, SEQ ID NO:1363/1364 (chain 1 GCCUGGNAGUUUAUUCGGAATT; chain 2 rUrUrCrCrGrArAmUrArArArCrUrCmCrArGrGrCdT*dT; chain 1: chemistry not given here; sense strand contains an undefined nucleotide n)" reading_unit=% observed_result=15
substance="AD-12045: modified dsRNA, SEQ ID NO:1325/1326 (chain 1 rGrCrCrUrGrGrArGrUrUrUrArUrUrCrGrGrArAdT*dT; chain 2 rUrUrCmCrGrArArUrArArArCrUrCrCrArGrGrCdT*dT)" reading_unit=% observed_result=8

Moving on to another substance below.
Request body: readout Remaining mRNA in % of controls at siRNA conc. of 30 nM, system PCSK9 mRNA, query AD-12057: modified dsRNA, SEQ ID NO:1349/1350 (chain 1 rGmCrCmUrGmGrAmGrUmUrUmArUmUrCmGrGmArA; chain 2 rUrUrCrCrGrArArUrArArArCrUrCrCrArGrGrCdT*dT) . Return the value.
8

Data provenance: patent US20120016009A1
